Property: aptazyme ON/OFF ratio; scope: individual variants
B1: Pistol ribozyme (parent)
chain: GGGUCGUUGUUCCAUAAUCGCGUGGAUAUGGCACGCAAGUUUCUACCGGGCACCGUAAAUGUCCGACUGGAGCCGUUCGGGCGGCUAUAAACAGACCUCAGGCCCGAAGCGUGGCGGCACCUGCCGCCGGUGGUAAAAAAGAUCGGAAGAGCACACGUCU

- Variants of: B1
- Assay Protocol: aptazyme ON/OFF ratio, guanine; higher = stronger switching; co-transcriptional cleavage with and without guanine
Property Label: aptazyme ON/OFF ratio

INSERT INTO measurements (mut, property_label, recorded_measurement) VALUES
  ('U7A U8G G9A U10C U11G C12G C13A', 'aptazyme ON/OFF ratio', 1.22),
  ('U7C G9A U11A C12U', 'aptazyme ON/OFF ratio', 1.19),
  ('U7C U8G G9U U11C C12A C13A', 'aptazyme ON/OFF ratio', 1.31),
  ('U7G U8C U10G C12A C13G', 'aptazyme ON/OFF ratio', 1.12),
  ('U7A U8C G9U U10C U11C C12G C13A', 'aptazyme ON/OFF ratio', 1.04),
  ('U7G G9A U11C C12U C13U', 'aptazyme ON/OFF ratio', 1.3),
  ('U7C U8C G9U C12A C13G', 'aptazyme ON/OFF ratio', 1.1),
  ('U8C G9A U10A U11A C12G C13A', 'aptazyme ON/OFF ratio', 1.15),
  ('U7G U8C U11G C13A', 'aptazyme ON/OFF ratio', 1.29),
  ('U8G G9U C12U C13U', 'aptazyme ON/OFF ratio', 1.14),
  ('U8G G9A C12G C13U', 'aptazyme ON/OFF ratio', 1.33),
  ('U7G U8C G9A U10C U11A C12A C13A', 'aptazyme ON/OFF ratio', 1.15),
  ('U7G U8G G9C U10C C12G', 'aptazyme ON/OFF ratio', 1.28),
  ('U8C G9C C12G C13U', 'aptazyme ON/OFF ratio', 1.13),
  ('U8A G9C U10A U11C C12U C13U', 'aptazyme ON/OFF ratio', 1.09),
  ('U7A G9C U10A U11A C12U C13A', 'aptazyme ON/OFF ratio', 1.13),
  ('U7C U8G G9A U10C U11A C12U C13U', 'aptazyme ON/OFF ratio', 1.05),
  ('U8C G9A U10C U11G C13U', 'aptazyme ON/OFF ratio', 1.35),
  ('U7G G9A U10G', 'aptazyme ON/OFF ratio', 1.19),
  ('U7A U8A G9U U10C C12A C13U', 'aptazyme ON/OFF ratio', 1.16),
  ('U7A U8G G9C U10A U11G C12G', 'aptazyme ON/OFF ratio', 1.35),
  ('U7C U10C U11A C12G C13U', 'aptazyme ON/OFF ratio', 1.15);
